Biological target: CaM (Bos taurus, UniProt P62157)
Construct: made in house; host or cells: E. coli BL21 (DE3)
Assay: Pull-down assay with immobilized protein and LSM libraries
Format: binding, bovine
Details: H12 library; 1:2 stoichiometry assumed; read-out: Surface mapping KD (apparent)
Description: Pull-down assays with immobilized test proteins and foldameric LSM libraries were carried out. Proteins were equilibrated with LSM probes, and equilibrium bound fractions (FB) were determined from the unbound fractions measured by HPLC-MS methods. Hits were corrected with background binding of the resin. […] MS data analysis. […] Using these processing setups, all raw data files were reprocessed together and analyzed. […]
pKd: −log10 of the molar value.
outcome-measure: pKd

// worked examples, pKd included
CSCC[C@@H](CC(=O)N[C@H]1CCC[C@@H]1C(=O)N[C@H]1CCC[C@@H]1C(N)=O)NC(=O)[C@H]1CCC[C@@H]1NC(=O)[C@H]1CCC[C@@H]1NC(=O)C[C@H](CCC(N)=O)NC(=O)[C@H]1CCC[C@@H]1NC(=O)[C@H]1CCC[C@@H]1N [H12 QM] = 3.44
N=C(N)NCCC[C@@H](CC(=O)N[C@H]1CCC[C@@H]1C(=O)N[C@H]1CCC[C@@H]1C(N)=O)NC(=O)[C@H]1CCC[C@@H]1NC(=O)[C@H]1CCC[C@@H]1NC(=O)C[C@H](CCCCN)NC(=O)[C@H]1CCC[C@@H]1NC(=O)[C@H]1CCC[C@@H]1N [H12 KR] = 3.48

A. C[C@@H](O)[C@@H](CC(=O)N[C@H]1CCC[C@@H]1C(=O)N[C@H]1CCC[C@@H]1C(N)=O)NC(=O)[C@H]1CCC[C@@H]1NC(=O)[C@H]1CCC[C@@H]1NC(=O)C[C@H](Cc1c[nH]c2ccccc12)NC(=O)[C@H]1CCC[C@@H]1NC(=O)[C@H]1CCC[C@@H]1N [H12 WT]
B. NC(=O)[C@H]1CCC[C@@H]1NC(=O)[C@H]1CCC[C@@H]1NC(=O)C[C@H](Cc1ccccc1)NC(=O)[C@H]1CCC[C@@H]1NC(=O)[C@H]1CCC[C@@H]1NC(=O)C[C@H](Cc1c[nH]c2ccccc12)NC(=O)[C@H]1CCC[C@@H]1NC(=O)[C@H]1CCC[C@@H]1N [H12 WF]
Enquiry: # compare pKd for A vs B ; return the one with the smaller value Answer with the label corresponding to your selection.
Return: A
(A: 3.44, B: 5.05)
